Exercise: for every item that follows, state its recorded IC50.
Molecular target: human recombinant A2AR (Homo sapiens, UniProt P29274)
Sequence (P29274 whole entry): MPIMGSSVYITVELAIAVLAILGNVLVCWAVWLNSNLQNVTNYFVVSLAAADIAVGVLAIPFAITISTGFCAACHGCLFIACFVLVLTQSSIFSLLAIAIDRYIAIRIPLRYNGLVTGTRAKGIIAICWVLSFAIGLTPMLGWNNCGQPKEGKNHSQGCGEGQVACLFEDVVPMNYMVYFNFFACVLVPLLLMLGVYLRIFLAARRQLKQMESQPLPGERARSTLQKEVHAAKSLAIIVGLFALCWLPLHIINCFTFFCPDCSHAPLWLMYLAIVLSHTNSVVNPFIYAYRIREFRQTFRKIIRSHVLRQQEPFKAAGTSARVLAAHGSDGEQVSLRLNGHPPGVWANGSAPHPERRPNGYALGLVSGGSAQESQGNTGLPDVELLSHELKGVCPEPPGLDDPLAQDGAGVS
Assay: Human A2A functional cAMP assay in human recombinant A2AR stable cell line (HEK293)

Recorded IC50, per entry:
STRUCTURE_SMILES_STRING	IC50
N#Cc1ccnc(-c2nc(N)nc3c2ncn3Cc2c(F)cc(N)cc2F)c1	< 300 nM
N#Cc1ccnc(-c2nc(N)nc3c2ncn3Cc2ccc(N)cc2F)c1	< 300 nM
N#Cc1cccc(-c2nc(N)nc3c2ncn3Cc2c(F)cccc2F)c1F	300 to 1000 nM
N#Cc1cccc(-c2nc(N)nc3c2ncn3Cc2c(F)cc(N)cc2F)c1F	300 to 1000 nM
N#Cc1cccc(-c2nc(N)nc3c2ncn3Cc2ccc(N)cc2F)c1F	> 1000 nM

Give IC50 for each of the items listed below.
1. N#Cc1cccc(-c2nc(N)nc3c2ncn3Cc2ccc(N)c(C(F)(F)F)c2)c1
2. N#Cc1cccc(-c2nc(N)nc3c2ncn3Cc2ccc(N)c(C(F)(F)F)c2)c1F
3. N#Cc1cccc(-c2nc(N)nc3c2ncn3Cc2c(F)cccc2F)c1
4. N#Cc1cccc(-c2nc(N)nc3c2ncn3Cc2ccc(N)cc2F)c1
5. N#Cc1cccc(-c2nc(N)nc3c2ncn3Cc2c(F)cc(N)cc2F)c1
6. Cc1cc(Cn2cnc3c(-c4cccc(C#N)c4)nc(N)nc32)ccc1N
7. Cc1cc(Cn2cnc3c(-c4cc(C#N)ccn4)nc(N)nc32)ccc1N
8. N#Cc1cccc(-c2nc(N)nc3c2ncn3Cc2ccc(N)cc2)c1

< 300 nM
> 1000 nM
< 300 nM
< 300 nM
< 300 nM
< 300 nM
300 to 1000 nM
> 1000 nM

Identify measured IC50 corresponding to "N#Cc1ccnc(-c2nc(N)nc3c2ncn3Cc2c(F)cccc2F)c1"
< 300 nM

---

Target: Human recombinant adenosine A2A receptor (Homo sapiens, UniProt P29274)
Assay: Human adenosine A2A receptor binding assay with [3H] CGS-21680 (Example 4.2)
pKi: −log10 of the molar value.
MEASURED_QUANTITY: pKi

Identify measured pKi corresponding to "N#Cc1cccc(-c2nc(N)nc3c2cnn3Cc2c(F)cc(N)cc2F)c1F"
> 7.70

---

Target: Human recombinant adenosine A2A receptor (Homo sapiens, UniProt P29274)
Assay: A2A receptor (A2AR) SPA binding assay with [3H] SCH58261
Set-up: expressed in transfected cells; host or cells: HEK293 (HKE293 [sic]), membrane preparation
Settings: [3H] SCH58261 radioligand
pKi: −log10 of the molar value.
Exercise: for every item that follows, state its recorded pKi.

Recorded pKi, per entry:
STRUCTURE_SMILES_STRING	ASSAY_VALUE
N#Cc1cc(-c2nc(N)nc3c2ncn3Cc2ccc(N)cc2)ccn1	< 6.30
N#Cc1cccc(-c2nc(N)nc3c2ncn3Cc2ccc(N)cc2F)c1F	7.00 to 8.00
N#Cc1ccnc(-c2nc(N)nc3c2ncn3Cc2ccc(N)cc2F)c1	> 8.00

Give pKi for each of the items listed below.
1. N#Cc1cccc(-c2nc(N)nc3c2ncn3Cc2ccc(N)cc2F)c1
2. N#Cc1cccc(-c2nc(N)nc3c2ncn3Cc2c(F)cccc2F)c1F

["> 8.00", "7.00 to 8.00"]

---

Exercise: for every item that follows, state its recorded Ki.
Target: Human recombinant adenosine A1 receptors (Homo sapiens, UniProt P30542)
Construct: expressed in transfected cells; host or cells: CHO-K1, membrane preparation
Sequence (P30542 whole entry): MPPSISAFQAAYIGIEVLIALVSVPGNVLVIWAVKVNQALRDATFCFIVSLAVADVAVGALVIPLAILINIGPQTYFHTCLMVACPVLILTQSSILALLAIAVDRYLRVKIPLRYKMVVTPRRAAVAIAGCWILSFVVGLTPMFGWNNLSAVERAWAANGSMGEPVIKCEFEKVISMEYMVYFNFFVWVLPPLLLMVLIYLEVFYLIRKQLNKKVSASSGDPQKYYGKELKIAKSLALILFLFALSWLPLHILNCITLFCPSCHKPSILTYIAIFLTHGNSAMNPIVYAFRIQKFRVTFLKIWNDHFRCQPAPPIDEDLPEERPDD
Assay: Human adenosine A1 receptor binding assay with [3H] DPCPX (purine compounds, Example 2.2)
Settings: membranes of CHO-K1 cells

Give Ki for each of the items listed below.
1. N#Cc1cccc(-c2nc(N)nc3c2ncn3Cc2ccc(N)cc2F)c1F
2. N#Cc1cccc(-c2nc(N)nc3c2ncn3Cc2c(F)cc(N)cc2F)c1
3. N#Cc1cccc(-c2nc(N)nc3c2ncn3Cc2ccc(N)cc2)c1
4. N#Cc1cccc(-c2nc(N)nc3c2ncn3Cc2c(F)cc(N)cc2F)c1F
5. Cc1cc(Cn2cnc3c(-c4cc(C#N)ccn4)nc(N)nc32)ccc1N

1. > 1000 nM
2. ≤ 300 nM
3. > 1000 nM
4. 300 to 1000 nM
5. 300 to 1000 nM

Give Ki for each of the items listed below.
1. Cc1c(C#N)cccc1-c1nc(N)nc2c1ncn2Cc1c(F)cccc1F
2. N#Cc1cccc(-c2nc(N)nc3c2ncn3Cc2ccc(N)c(C(F)(F)F)c2)c1F
3. N#Cc1cccc(-c2nc(N)nc3c2ncn3Cc2ccc(N)cc2F)c1
4. N#Cc1ccnc(-c2nc(N)nc3c2ncn3Cc2ccc(N)cc2F)c1
5. N#Cc1cccc(-c2nc(N)nc3c2ncn3Cc2ccc(N)c(C(F)(F)F)c2)c1
6. Cc1cc(Cn2cnc3c(-c4cccc(C#N)c4)nc(N)nc32)ccc1N

1. > 1000 nM
2. > 1000 nM
3. 300 to 1000 nM
4. 300 to 1000 nM
5. 300 to 1000 nM
6. > 1000 nM

---

Biological target: Human recombinant adenosine A2A receptor (Homo sapiens, UniProt P29274)
Test: A2A receptor (A2AR) SPA binding assay with [3H] SCH58261
Design: expressed in transfected cells; host or cells: HEK293 (HKE293 [sic]), membrane preparation
Conditions: [3H] SCH58261 radioligand
pKi: −log10 of the molar value.
MEASURED_QUANTITY: pKi

Recorded pKi, per entry:
COMPOUND	ASSAY_VALUE
N#Cc1cccc(-c2nc(N)nc3c2ncn3Cc2c(F)cc(N)cc2F)c1 [Compound 107]	> 8.00
N#Cc1cccc(-c2nc(N)nc3c2ncn3Cc2ccc(N)cc2)c1F [Compound 102]	6.30 to 7.00
N#Cc1cccc(-c2nc(N)nc3c2ncn3Cc2ccc(N)cc2F)n1 [Compound 119]	6.30 to 7.00
Cc1cc(Cn2cnc3c(-c4cccc(C#N)c4)nc(N)nc32)ccc1N [Compound 104]	> 8.00

Give pKi for each of the items listed below.
1. Cc1c(C#N)cccc1-c1nc(N)nc2c1ncn2Cc1c(F)cccc1F [Compound 114]
2. N#Cc1cc(-c2nc(N)nc3c2ncn3Cc2c(F)cccc2F)ccn1 [Compound 134]
3. N#Cc1cncc(-c2nc(N)nc3c2ncn3Cc2c(F)cc(N)cc2F)c1 [Compound 125]
4. N#Cc1ccnc(-c2nc(N)nc3c2ncn3Cc2c(F)cccc2F)c1 [Compound 132]
5. Cc1cc(Cn2cnc3c(-c4cc(C#N)ccn4)nc(N)nc32)ccc1N [Compound 128]

1: 7.00 to 8.00; 2: 7.00 to 8.00; 3: 6.30 to 7.00; 4: > 8.00; 5: > 8.00

---

Exercise: for every item that follows, state its recorded Ki.
Biological target: Human recombinant adenosine A1 receptors (Homo sapiens, UniProt P30542)
Construct: expressed in transfected cells; host or cells: CHO-K1, membrane preparation
Test: Human adenosine A1 receptor binding assay with [3H] DPCPX (purine compounds, Example 2.2)
Details: membranes of CHO-K1 cells

STRUCTURE_SMILES_STRING	TARGET_UNDER_TEST	ASSAY_VALUE
N#Cc1cccc(-c2nc(N)nc3c2ncn3Cc2c(F)cccc2F)c1	Human recombinant adenosine A1 receptors (Homo sapiens, UniProt P30542)	≤ 0.3 µM
Cc1cc(Cn2cnc3c(-c4cccc(C#N)c4F)nc(N)nc32)ccc1N	Human recombinant adenosine A1 receptors (Homo sapiens, UniProt P30542)	> 1 µM
N#Cc1cccc(-c2nc(N)nc3c2ncn3Cc2c(F)cccc2F)c1F	Human recombinant adenosine A1 receptors (Homo sapiens, UniProt P30542)	0.3 to 1 µM

Give Ki for each of the items listed below.
1. N#Cc1ccnc(-c2nc(N)nc3c2ncn3Cc2c(F)cc(N)cc2F)c1
2. N#Cc1ccnc(-c2nc(N)nc3c2ncn3Cc2c(F)cccc2F)c1

≤ 0.3 µM
≤ 0.3 µM

---

Biological target: Human recombinant adenosine A2A receptor (Homo sapiens)
Test: A2A receptor (A2AR) SPA binding assay with [3H] SCH58261
Set-up: expressed in transfected cells; host or cells: HEK293 (HKE293 [sic]), membrane preparation
Conditions: [3H] SCH58261 radioligand
pKi: −log10 of the molar value.
MEASURED_QUANTITY: pKi

Recorded pKi, per entry:
STRUCTURE_SMILES_STRING	MEASURED_QUANTITY	ASSAY_VALUE
N#Cc1cc(-c2nc(N)nc3c2ncn3Cc2c(F)cc(N)cc2F)ccn1	pKi	7.00 to 8.00
Cc1c(C#N)cccc1-c1nc(N)nc2c1ncn2Cc1ccc(N)cc1	pKi	< 6.30
Cc1cc(Cn2cnc3c(-c4cccc(C#N)c4F)nc(N)nc32)ccc1N	pKi	7.00 to 8.00

Give pKi for each of the items listed below.
1. N#Cc1cccc(-c2nc(N)nc3c2ncn3Cc2ccc(N)c(C(F)(F)F)c2)c1
2. N#Cc1cccc(-c2nc(N)nc3c2ncn3Cc2c(F)cc(N)cc2F)c1F

> 8.00
7.00 to 8.00

Give pKi for each of the items listed below.
1. N#Cc1cccc(-c2nc(N)nc3c2ncn3Cc2c(F)cccc2F)c1
2. N#Cc1cccc(-c2nc(N)nc3c2ncn3Cc2ccc(N)c(C(F)(F)F)c2)c1F

1. > 8.00
2. 7.00 to 8.00

Give pKi for each of the items listed below.
1. N#Cc1ccnc(-c2nc(N)nc3c2ncn3Cc2c(F)cc(N)cc2F)c1
2. N#Cc1cccc(-c2nc(N)nc3c2ncn3Cc2ccc(N)cc2)c1

["> 8.00", "7.00 to 8.00"]

From: patent US12606564B2
